Reference source: ChEMBL document CHEMBL3988442

Below, each entry is listed with its recorded Percent Effect.
- ASSAY SYSTEM: Tyrosyl-tRNA synthetase, putative (Trypanosoma cruzi (strain CL Brener)) (UniProt Q4DSP6)
- Sequence (Q4DSP6 as listed by the source): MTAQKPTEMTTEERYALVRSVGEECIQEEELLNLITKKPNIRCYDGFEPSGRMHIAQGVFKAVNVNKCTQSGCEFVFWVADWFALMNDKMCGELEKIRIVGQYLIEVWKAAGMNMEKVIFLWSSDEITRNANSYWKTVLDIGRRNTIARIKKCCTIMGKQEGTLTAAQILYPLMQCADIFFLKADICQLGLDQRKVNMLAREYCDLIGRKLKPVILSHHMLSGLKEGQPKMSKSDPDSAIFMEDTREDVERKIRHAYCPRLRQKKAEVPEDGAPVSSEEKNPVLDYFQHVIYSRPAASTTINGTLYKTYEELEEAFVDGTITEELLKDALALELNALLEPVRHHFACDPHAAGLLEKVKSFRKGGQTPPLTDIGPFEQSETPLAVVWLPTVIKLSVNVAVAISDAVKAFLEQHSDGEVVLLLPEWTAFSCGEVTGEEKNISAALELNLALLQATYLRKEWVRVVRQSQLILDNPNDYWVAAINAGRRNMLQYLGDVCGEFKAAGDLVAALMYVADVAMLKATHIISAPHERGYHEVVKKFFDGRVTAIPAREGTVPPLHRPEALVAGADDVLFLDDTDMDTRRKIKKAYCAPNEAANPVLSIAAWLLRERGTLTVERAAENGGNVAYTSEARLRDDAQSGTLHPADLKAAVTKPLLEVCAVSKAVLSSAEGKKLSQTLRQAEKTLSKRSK
- PROCEDURE TEXT: Trypanosoma cruzi tyrosyl tRNA synthetase (TcYRS) SOP
- Assay type: functional
- Set-up: scale not given: direction of the effect not stated beside the values
- EXPERIMENTAL CONTEXT: 30 µM
Hi! Could you send only the number? It should be in %, unit omitted.

The following compounds have reported results that may help.
{"COMPOUND": "O=C(c1ccnnc1)N1CCN2C[C@H](Oc3cccc(F)c3)C[C@H]2C1", "Percent Effect / %": 10}
{"COMPOUND": "CCN(Cc1ccc2c(c1)OCCO2)C(=O)NC(C)Cn1ccnc1 (configuration not stated)", "Percent Effect / %": 9.76}
{"COMPOUND": "O=C1CCC2(CCCN(CCc3ccccc3)C2)N1Cc1cccnc1 (configuration not stated)", "Percent Effect / %": 10}
{"COMPOUND": "CN(C)C(CNC(=O)c1cccc(-n2cnnn2)c1)c1ccccc1Cl (configuration not stated)", "Percent Effect / %": 10}
{"COMPOUND": "Cn1cnc2c1C(COCc1ccccc1)N(Cc1ccncc1)CC2 (configuration not stated)", "Percent Effect / %": 10}
{"COMPOUND": "CN1CCN(CC2CC2)C(=O)c2cnc(N3CC[C@@H](O)C3)nc21", "Percent Effect / %": -7.69}
{"COMPOUND": "Cc1cccc(CN2C(=O)CO[C@@H]3CN(Cc4nccn4C)C[C@H]32)c1", "Percent Effect / %": 18.3}
{"COMPOUND": "c1cnn(CCNCc2csc(-c3ccsc3)n2)c1", "Percent Effect / %": -1.21}
{"COMPOUND": "CC(=O)N1CC(=O)N(c2ccccc2)CC12CCN(Cc1nccs1)C2 (configuration not stated)", "Percent Effect / %": 30}
{"COMPOUND": "COCCCN(C)C1CCCN(Cc2noc(C)n2)C1 (configuration not stated)", "Percent Effect / %": 15.8}

Lookup: Give its Percent Effect value. Item: CN(C)C1CCN(C(=O)NCc2ccccc2Cn2cncn2)CC1
Found: 17.1

Lookup: Then Cn1c(CN2CCCC2)nnc1C1CCCN(C(=O)C2CCOCC2)C1 (configuration not stated) ?
Found: 4.88

---

Below is a list of entries, each paired with its recorded Percent Effect value.
- ASSAY SYSTEM: Ubiquitin-activating enzyme e1, putative (Leishmania donovani (strain BPK282A1)) (UniProt E9BSI1)
- Sequence (E9BSI1 as listed by the source): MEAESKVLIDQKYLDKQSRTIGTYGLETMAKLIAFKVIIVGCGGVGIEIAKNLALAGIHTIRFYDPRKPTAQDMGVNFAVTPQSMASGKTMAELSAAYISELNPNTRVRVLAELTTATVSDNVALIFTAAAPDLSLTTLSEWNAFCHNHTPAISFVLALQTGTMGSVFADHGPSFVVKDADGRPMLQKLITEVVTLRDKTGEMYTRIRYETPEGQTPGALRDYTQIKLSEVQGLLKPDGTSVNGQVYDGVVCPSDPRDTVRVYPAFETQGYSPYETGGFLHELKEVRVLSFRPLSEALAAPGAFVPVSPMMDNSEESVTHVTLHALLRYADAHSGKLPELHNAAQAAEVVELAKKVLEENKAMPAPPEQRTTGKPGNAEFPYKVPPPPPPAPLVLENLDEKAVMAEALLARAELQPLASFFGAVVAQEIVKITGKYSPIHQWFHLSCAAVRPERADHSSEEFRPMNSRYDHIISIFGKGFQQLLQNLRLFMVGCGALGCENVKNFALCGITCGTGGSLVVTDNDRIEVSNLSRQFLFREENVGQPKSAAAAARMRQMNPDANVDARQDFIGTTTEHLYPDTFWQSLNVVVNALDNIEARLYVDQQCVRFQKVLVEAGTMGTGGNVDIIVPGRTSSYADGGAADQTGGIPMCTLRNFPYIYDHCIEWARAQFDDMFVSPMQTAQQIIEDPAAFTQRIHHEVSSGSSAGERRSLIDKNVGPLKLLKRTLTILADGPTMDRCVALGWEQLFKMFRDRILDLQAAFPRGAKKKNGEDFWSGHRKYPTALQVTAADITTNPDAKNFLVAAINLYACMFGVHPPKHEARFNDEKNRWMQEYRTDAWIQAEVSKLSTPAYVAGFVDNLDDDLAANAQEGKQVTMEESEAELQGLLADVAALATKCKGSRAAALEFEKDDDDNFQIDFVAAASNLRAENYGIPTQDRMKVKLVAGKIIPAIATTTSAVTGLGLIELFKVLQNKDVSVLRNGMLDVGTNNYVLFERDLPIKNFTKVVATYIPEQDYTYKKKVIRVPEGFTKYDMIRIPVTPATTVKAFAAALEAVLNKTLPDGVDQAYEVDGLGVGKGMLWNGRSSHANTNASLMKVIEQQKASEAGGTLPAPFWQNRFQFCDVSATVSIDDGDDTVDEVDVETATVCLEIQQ
- PROCEDURE TEXT: Leishmania donovani Ubiquitin Activating Enzyme (LdE1)
- Assay type: functional
- Design: scale not given: direction of the effect not stated beside the values
- EXPERIMENTAL CONTEXT: 30 µM
Measured potencies and affinities stand elsewhere.
Express the result in % but write the number alone.

{"COMPOUND": "CC(C)c1nc(C(=O)N2CCCC(n3cncn3)C2)c[nH]1 (stereo unspecified)", "UNIT INFO": "%", "OBSERVED VALUE": 11.4}
{"COMPOUND": "CC(=O)NC(C)c1ccc(OCC2CC2)c(F)c1 (stereo unspecified)", "UNIT INFO": "%", "OBSERVED VALUE": 5.26}

Lookup: Record request: Percent Effect value, item Clc1ccc(OCCCN2CCN(c3cnccn3)CC2)cc1
Found: -7.79

Lookup: Also CC(C)c1noc(CCCC(=O)N2CCC(Cc3cccnc3)CC2)n1 ?
Found: -2.53

Lookup: Again, but for Cc1cnn(C2CCCN(C(=O)c3cn4cccnc4n3)C2)c1 (stereo unspecified)
Found: 8.11

Lookup: Moving on to Cn1ccc(C(=O)NCc2cccc(CN3CCCC3)c2)cc1=O
Found: 20.8

Lookup: And then Nc1nc(CCC(=O)N2CCOC(CC3CCCCC3)C2)cs1 (stereo unspecified) , what is it?
Found: 0

---

- ASSAY SYSTEM: Chromo domain-containing protein 1 (Saccharomyces cerevisiae (strain ATCC 204508 / S288c) (Baker's yeast)) (UniProt P32657)
- Sequence (P32657 whole entry, the tested form may be a part): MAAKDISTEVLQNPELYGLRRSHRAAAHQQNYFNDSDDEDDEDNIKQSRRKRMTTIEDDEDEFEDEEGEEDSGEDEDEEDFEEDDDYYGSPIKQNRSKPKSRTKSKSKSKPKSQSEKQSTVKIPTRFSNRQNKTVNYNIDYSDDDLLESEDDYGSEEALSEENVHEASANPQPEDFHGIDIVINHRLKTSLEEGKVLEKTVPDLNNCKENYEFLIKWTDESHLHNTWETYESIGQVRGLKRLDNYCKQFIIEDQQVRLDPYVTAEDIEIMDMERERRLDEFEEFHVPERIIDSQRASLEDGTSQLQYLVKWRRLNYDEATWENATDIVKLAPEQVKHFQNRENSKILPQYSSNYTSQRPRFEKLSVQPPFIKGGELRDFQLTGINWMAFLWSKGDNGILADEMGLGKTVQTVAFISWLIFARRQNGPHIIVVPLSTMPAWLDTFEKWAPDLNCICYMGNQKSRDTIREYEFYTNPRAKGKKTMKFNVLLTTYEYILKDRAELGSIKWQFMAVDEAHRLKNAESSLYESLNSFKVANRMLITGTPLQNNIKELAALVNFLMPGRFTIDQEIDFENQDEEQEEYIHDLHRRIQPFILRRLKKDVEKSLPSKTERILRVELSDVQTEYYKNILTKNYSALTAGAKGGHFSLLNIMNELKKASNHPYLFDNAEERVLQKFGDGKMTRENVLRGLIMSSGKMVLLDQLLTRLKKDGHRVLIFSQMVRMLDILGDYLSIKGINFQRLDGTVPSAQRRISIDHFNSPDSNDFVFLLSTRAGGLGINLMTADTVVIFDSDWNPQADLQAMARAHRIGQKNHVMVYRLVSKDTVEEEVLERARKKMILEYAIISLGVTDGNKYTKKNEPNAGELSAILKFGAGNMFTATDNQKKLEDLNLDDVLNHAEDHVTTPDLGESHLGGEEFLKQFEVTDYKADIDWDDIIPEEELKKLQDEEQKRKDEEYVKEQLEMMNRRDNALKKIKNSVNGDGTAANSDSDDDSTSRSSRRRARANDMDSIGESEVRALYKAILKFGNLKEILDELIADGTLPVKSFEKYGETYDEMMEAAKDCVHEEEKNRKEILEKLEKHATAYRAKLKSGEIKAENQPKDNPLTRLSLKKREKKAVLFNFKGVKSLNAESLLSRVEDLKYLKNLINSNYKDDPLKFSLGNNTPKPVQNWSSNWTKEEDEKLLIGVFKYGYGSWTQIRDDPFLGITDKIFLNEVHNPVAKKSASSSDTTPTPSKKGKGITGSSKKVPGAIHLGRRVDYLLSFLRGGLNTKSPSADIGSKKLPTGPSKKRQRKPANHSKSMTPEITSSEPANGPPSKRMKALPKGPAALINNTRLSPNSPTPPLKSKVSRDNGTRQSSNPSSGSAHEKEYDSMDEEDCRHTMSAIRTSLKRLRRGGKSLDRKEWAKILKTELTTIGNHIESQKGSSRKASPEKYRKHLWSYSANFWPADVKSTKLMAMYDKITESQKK
- PROCEDURE TEXT: ScCHD-1 Enzyme Inhibition Assay; also: in the data most compounds retested in dose-response had high values
- Type: functional
- Set-up: scale not given: direction of the effect not stated beside the values
- EXPERIMENTAL CONTEXT: 30 µM
OBSERVED PROPERTY: Percent Effect (%)
Write it as a number; the unit % goes unstated.

Lookup: Which Percent Effect reading was recorded for the compound O=C(c1cccs1)N1C[C@H]2CC[C@@]3(N=C(c4ccccc4)NC3=O)[C@H]2C1 ?
Found: -0.884

Lookup: Can you handle CC(C)n1ncc2cc(NC(=O)N3CCC(N4CCCC4)C3)cnc21 (stereo unspecified) next?
Found: -5.17

---

- System: Trypanosoma cruzi
- PROCEDURE TEXT: Trypanosoma cruzi phosphomannomutase and mannose-1-phosphate guanylyltransferase assay
- Type: functional
- Set-up: scale not given: direction of the effect not stated beside the values
- EXPERIMENTAL CONTEXT: 10 µM
OBSERVED PROPERTY: Percent Effect (%)
State just the number; it will be interpreted in %.

{"COMPOUND": "Cc1nc(C2CCCN2Cc2ncc(C(C)C)o2)no1 (centres undefined)", "ASSAY SYSTEM": "Trypanosoma cruzi", "UNIT INFO": "%", "OBSERVED VALUE": -0.803}
{"COMPOUND": "O=C(c1ccc[nH]1)N1CCCC(c2cc(C(F)(F)F)[nH]n2)C1 (centres undefined)", "ASSAY SYSTEM": "Trypanosoma cruzi", "UNIT INFO": "%", "OBSERVED VALUE": -4.39}
{"COMPOUND": "Cc1ccc(C(=O)N2CCN(Cc3ccsc3)CC2)n1C", "ASSAY SYSTEM": "Trypanosoma cruzi", "UNIT INFO": "%", "OBSERVED VALUE": -1.61}
{"COMPOUND": "CCn1cc(CN(C)C(=O)c2cccc(CCC(C)(C)O)c2)cn1", "ASSAY SYSTEM": "Trypanosoma cruzi", "UNIT INFO": "%", "OBSERVED VALUE": -5.36}
{"COMPOUND": "CCc1ncc2c(n1)CN(Cc1nc(-c3ccsc3)no1)CC2", "ASSAY SYSTEM": "Trypanosoma cruzi", "UNIT INFO": "%", "OBSERVED VALUE": -1.77}

Lookup: Consider the compound CC1CN(C)c2ccccc2CN1C(=O)CSc1ccncc1 (centres undefined) and give its measured Percent Effect.
Found: 0.783

Lookup: Next record, please: Cc1cccc(CN2C[C@@H]3CN(C(=O)NC(C)C)C[C@@H]3C2=O)c1
Found: -1.87

Lookup: Request: Cc1cc(NCc2cccnc2)n2nc(C)cc2n1
Found: -2.62

Lookup: How about this compound: COc1ccc(CNC(=O)NCC2CCOC2)c(C(F)(F)F)c1 (centres undefined)
Found: -4.37

Lookup: Same for Cc1cnc(CN(C)C2CCN(Cc3ccccc3C#N)C2)o1 (centres undefined)
Found: -5.82

Lookup: Next compound up: O=C(NCc1cc(O)ncn1)C1CCOc2ccccc2C1 (centres undefined)
Found: 1.26

Lookup: Moving on to the next compound: CCS(=O)(=O)N1Cc2nccn2CC(COc2cccnc2)C1 (centres undefined)
Found: 3.48

Lookup: Same read-out for COCCc1noc(CNCC2CCCN2c2cccnn2)n1 (centres undefined) ?
Found: 4.41

Lookup: What about c1ccc(-n2ncc(CN3CCCC3Cn3cccn3)n2)cc1 (centres undefined) ?
Found: -2.61

Lookup: Next compound up: Cn1cnnc1S(=O)(=O)C1CCN(S(=O)(=O)c2ccc(F)c(Cl)c2)CC1
Found: -1.37

Lookup: Try CN1CC(=O)N(c2cnn(C)c2)CC12CCN(C(=O)c1ccsc1)C2 (centres undefined) next.
Found: -6.13

Lookup: // repeat for COc1cccc(CN(C)C(=O)CN2CCN(c3nccn3C)CC2)c1 and report
Found: 3.99

---

Entries and their Percent Effect values follow.
- ASSAY SYSTEM: AMP-activated protein kinase, AMPK (Homo sapiens) (UniProt P54646+O43741+P54619+Q9UGJ0+Q9Y478+Q13131+Q9UGI9)
- PROCEDURE TEXT: AMP-dependent Kinase enzyme assay. An in vitro enzyme assay that detects ADP turnover that is directly proportional to AMPK activity. This uses naive AMPK that is activated during the assay with MK-8722
- Format: functional
- Set-up: scale not given: direction of the effect not stated beside the values
- EXPERIMENTAL CONTEXT: 30 µM

Solved entries:
{"COMPOUND": "CC(=O)N1CCCC1c1cccc(Cc2ccc(F)cc2)n1 (centres undefined)", "Percent Effect": "10.8%"}
{"COMPOUND": "Cc1cccnc1NC(=O)CSc1ccc2c(c1)OCCO2", "Percent Effect": "-2.48%"}

Lookup: Look up Percent Effect for this compound: Cc1ccnc(OCC(=O)N2CCC(C(N)=O)CC2)n1
Found: 0.564%

Lookup: Next up: COc1cnc(C2(O)CCN(C(=O)c3cccnc3)CC2)c(OC)n1
Found: 11.7%

Lookup: // same read-out, input: Cc1ccc(C2C3=C(COC3=O)Nc3[nH]nc(C)c32)cc1C (centres undefined)
Found: 12.5%
